Source of measurements: ChEMBL document CHEMBL1153372

Molecular target: Collagenase 3 (Homo sapiens, UniProt P45452)
Experiment: Inhibition of human recombinant MMP13 expressed in Escherichia coli
pIC50: −log10 of the molar value.
Short version: pIC50 at least 7 is Met, less is Not met.

| CHEMICAL_STRING | SYSTEM_UNDER_TEST | ASSIGNED_CLASS |
| --- | --- | --- |
| CC(C)OC(=O)Nc1ccc2c(c1)oc1ccc(S(=O)(=O)N[C@@H](C(=O)O)C(C)C)cc12 | Collagenase 3 (Homo sapiens, UniProt P45452) | Not met |
| CC(C)[C@@H](NS(=O)(=O)c1ccc2oc3ccccc3c2c1)C(=O)O | Collagenase 3 (Homo sapiens, UniProt P45452) | Not met |
| CC(C)[C@H](NS(=O)(=O)c1ccc2c(c1)oc1ccc(NC(=O)Oc3ccccc3)cc12)C(=O)O | Collagenase 3 (Homo sapiens, UniProt P45452) | Not met |

API: the following record is the query input.
Decide: is the reported value of pIC50 for CC(C)[C@H](NS(=O)(=O)c1ccc2c(c1)oc1ccc(NC(=O)NCCc3cccs3)cc12)C(=O)O equal to or greater than 7?
Met

====

Assay: AUC in C57BL/6 mouse at 30 mg/kg, po
Format: ADME, organism-based
Set-up: dose 30 mg/kg, route oral
Details: plasma
VALUE_KIND: AUC (ng·h/mL)
Response body: numeric value in ng·h/mL, unit text excluded.

Specify AUC for COC(=O)Nc1ccc2c(c1)oc1ccc(S(=O)(=O)N[C@@H](C(=O)O)C(C)C)cc12 and stop.
21700

Note AUC for the compound shown: CCOC(=O)Nc1ccc2oc3cc(S(=O)(=O)N[C@H](C(=O)O)C(C)C)ccc3c2c1
10800

Give AUC for COC(=O)Nc1ccc2oc3cc(S(=O)(=O)N[C@H](C(=O)O)C(C)C)ccc3c2c1
7480

For the compound CC(C)[C@@H](NS(=O)(=O)c1ccc2oc3cc(NS(C)(=O)=O)ccc3c2c1)C(=O)O , give its reported AUC.
245

====

Molecular target: Matrilysin (Homo sapiens, UniProt P09237)
Sequence (P09237 whole entry): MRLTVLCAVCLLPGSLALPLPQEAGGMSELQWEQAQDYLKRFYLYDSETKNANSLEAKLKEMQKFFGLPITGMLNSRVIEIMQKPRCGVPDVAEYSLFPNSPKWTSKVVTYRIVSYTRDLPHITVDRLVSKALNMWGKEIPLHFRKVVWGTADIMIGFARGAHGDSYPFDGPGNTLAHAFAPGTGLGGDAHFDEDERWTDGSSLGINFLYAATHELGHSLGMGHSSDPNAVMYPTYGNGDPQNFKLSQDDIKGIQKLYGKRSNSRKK
pIC50: −log10 of the molar value.
VALUE_KIND: pIC50

// fetch pIC50 given entry COC(=O)Nc1ccc2oc3cc(S(=O)(=O)N[C@H](C(=O)O)C(C)C)ccc3c2c1
< 4.66

====

Molecular target: A disintegrin and metalloproteinase with thrombospondin motifs 5 (Homo sapiens, UniProt Q9UNA0)
Sequence (Q9UNA0 whole entry): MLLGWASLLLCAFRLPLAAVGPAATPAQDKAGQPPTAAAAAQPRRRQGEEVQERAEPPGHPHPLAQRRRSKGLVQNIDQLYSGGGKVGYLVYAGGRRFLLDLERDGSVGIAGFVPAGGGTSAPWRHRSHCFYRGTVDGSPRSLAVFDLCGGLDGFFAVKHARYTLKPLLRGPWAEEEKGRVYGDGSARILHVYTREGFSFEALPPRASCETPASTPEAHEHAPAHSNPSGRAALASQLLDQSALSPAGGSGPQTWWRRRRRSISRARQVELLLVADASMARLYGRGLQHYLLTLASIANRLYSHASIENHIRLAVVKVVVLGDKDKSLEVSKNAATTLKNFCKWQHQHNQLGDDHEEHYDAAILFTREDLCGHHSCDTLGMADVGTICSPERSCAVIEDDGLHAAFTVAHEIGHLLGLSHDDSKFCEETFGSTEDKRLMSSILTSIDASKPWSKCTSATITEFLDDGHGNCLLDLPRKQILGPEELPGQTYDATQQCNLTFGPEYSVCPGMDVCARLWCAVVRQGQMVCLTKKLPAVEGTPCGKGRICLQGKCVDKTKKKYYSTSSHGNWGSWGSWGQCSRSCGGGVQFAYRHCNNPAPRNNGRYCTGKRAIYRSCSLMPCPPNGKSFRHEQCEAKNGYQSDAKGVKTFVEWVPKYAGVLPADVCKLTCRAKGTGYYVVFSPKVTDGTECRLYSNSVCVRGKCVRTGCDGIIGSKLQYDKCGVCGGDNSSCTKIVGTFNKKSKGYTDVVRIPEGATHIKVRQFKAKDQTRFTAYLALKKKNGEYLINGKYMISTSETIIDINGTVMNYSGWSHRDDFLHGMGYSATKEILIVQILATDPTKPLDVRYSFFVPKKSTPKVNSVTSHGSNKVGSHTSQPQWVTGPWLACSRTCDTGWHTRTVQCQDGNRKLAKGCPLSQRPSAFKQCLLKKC
pIC50: −log10 of the molar value.
VALUE_KIND: pIC50

Supply pIC50 value. Item: COC(=O)Nc1ccc2oc3cc(S(=O)(=O)N[C@H](C(=O)O)C(C)C)ccc3c2c1
< 5.00

====

// bioavailability lookup, one value per entry
Assay: Oral bioavailability in C57BL/6 mouse at 30 mg/kg
Assay type: ADME, organism-based
Details: in vivo
Write down the numeric answer in % and omit the unit.

A selection of reference data follows.
| CHEMICAL_STRING | QUANTITY_UNIT | bioavailability |
| --- | --- | --- |
| CCOC(=O)Nc1ccc2oc3cc(S(=O)(=O)N[C@H](C(=O)O)C(C)C)ccc3c2c1 | % | 42 |
| CC(C)[C@@H](NS(=O)(=O)c1ccc2oc3cc(NS(C)(=O)=O)ccc3c2c1)C(=O)O | % | 7 |
| COC(=O)Nc1ccc2oc3cc(S(=O)(=O)N[C@H](C(=O)O)C(C)C)ccc3c2c1 | % | 27 |

Turning now to a further compound:
For the compound COC(=O)Nc1ccc2c(c1)oc1ccc(S(=O)(=O)N[C@@H](C(=O)O)C(C)C)cc12 , give its reported bioavailability.
36

====

Molecular target: Collagenase 3 (Homo sapiens, UniProt P45452)
Experiment: Inhibition of human recombinant MMP13 expressed in Escherichia coli
VALUE_KIND: IC50
Please provide the amount together with its unit, number first.

Please indicate recorded IC50 of Cc1noc(C)c1S(=O)(=O)Nc1ccc2c(c1)oc1ccc(S(=O)(=O)N[C@@H](C(=O)O)C(C)C)cc12 measured with Collagenase 3 (Homo sapiens, UniProt P45452).
34 µM

Please report IC50 with Collagenase 3 (Homo sapiens, UniProt P45452) for item CC(C)[C@H](NS(=O)(=O)c1ccc2c(c1)oc1ccc(NC(=O)Oc3ccc(F)cc3)cc12)C(=O)O .
0.2 µM

Look up and report IC50, with Collagenase 3 (Homo sapiens, UniProt P45452) as system, for CC(C)[C@H](NS(=O)(=O)c1ccc2c(c1)oc1ccc(NS(=O)(=O)CC(F)(F)F)cc12)C(=O)O
0.67 µM

Identify measured IC50 obtained with Collagenase 3 (Homo sapiens, UniProt P45452) for CC(C)[C@@H](NS(=O)(=O)c1ccc2oc3cc(NS(=O)(=O)c4ccccc4)ccc3c2c1)C(=O)O .
6 µM

====

Experiment: Metabolic stability in dog liver microsomes
Format: ADME, Canis lupus familiaris, Microsome
VALUE_KIND: half-life

Please look at this molecule and report its half-life: COC(=O)Nc1ccc2oc3cc(S(=O)(=O)N[C@H](C(=O)O)C(C)C)ccc3c2c1
> 1 h

====

Molecular target: Collagenase 3 (Homo sapiens, UniProt P45452)
Assay: Inhibition of human recombinant MMP13 expressed in Escherichia coli
In this section we review reported pIC50 values for a set of compounds.
# log scale: pIC50 equals minus log10 of the concentration in mol/L

Would you please look over these solved cases?
| CHEMICAL_STRING | pIC50 |
| --- | --- |
| CCCOC(=O)Nc1ccc2oc3cc(S(=O)(=O)N[C@H](C(=O)O)C(C)C)ccc3c2c1 | 8.00 |
| CC(C)[C@H](NS(=O)(=O)c1ccc2c(c1)oc1ccc(NC(=O)Nc3ccsc3)cc12)C(=O)O | 8.48 |
| Cc1ccc(OC(=O)Nc2ccc3oc4cc(S(=O)(=O)N[C@H](C(=O)O)C(C)C)ccc4c3c2)cc1 | 7.00 |

Let's switch to this compound now.
# return recorded pIC50 for input CC(C)[C@H](NS(=O)(=O)c1ccc2c(c1)oc1ccc(NS(C)(=O)=O)cc12)C(=O)O
7.03

====

Target: Macrophage metalloelastase (Rattus norvegicus, UniProt Q63341)
Sequence (Q63341 whole entry): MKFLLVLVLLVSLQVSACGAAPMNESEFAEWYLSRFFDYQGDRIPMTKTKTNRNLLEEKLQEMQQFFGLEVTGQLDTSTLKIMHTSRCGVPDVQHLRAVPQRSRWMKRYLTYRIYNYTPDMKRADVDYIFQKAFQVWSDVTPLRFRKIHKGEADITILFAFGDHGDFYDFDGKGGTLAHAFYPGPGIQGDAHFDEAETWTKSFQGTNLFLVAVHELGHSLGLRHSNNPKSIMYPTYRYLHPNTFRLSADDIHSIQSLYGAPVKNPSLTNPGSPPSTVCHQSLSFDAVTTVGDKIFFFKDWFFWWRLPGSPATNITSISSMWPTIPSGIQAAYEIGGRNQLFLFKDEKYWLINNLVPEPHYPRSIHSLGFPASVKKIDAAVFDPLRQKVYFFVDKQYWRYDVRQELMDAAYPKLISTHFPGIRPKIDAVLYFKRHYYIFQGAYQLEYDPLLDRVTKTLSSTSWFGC
VALUE_KIND: IC50
Record the result as number plus unit.

Output reported IC50 of the molecule COC(=O)Nc1ccc2oc3cc(S(=O)(=O)N[C@H](C(=O)O)C(C)C)ccc3c2c1 on Macrophage metalloelastase (Rattus norvegicus, UniProt Q63341).
320 nM

====

Molecular target: Matrix metalloproteinase-9 (Homo sapiens, UniProt P14780)
Sequence (P14780 whole entry): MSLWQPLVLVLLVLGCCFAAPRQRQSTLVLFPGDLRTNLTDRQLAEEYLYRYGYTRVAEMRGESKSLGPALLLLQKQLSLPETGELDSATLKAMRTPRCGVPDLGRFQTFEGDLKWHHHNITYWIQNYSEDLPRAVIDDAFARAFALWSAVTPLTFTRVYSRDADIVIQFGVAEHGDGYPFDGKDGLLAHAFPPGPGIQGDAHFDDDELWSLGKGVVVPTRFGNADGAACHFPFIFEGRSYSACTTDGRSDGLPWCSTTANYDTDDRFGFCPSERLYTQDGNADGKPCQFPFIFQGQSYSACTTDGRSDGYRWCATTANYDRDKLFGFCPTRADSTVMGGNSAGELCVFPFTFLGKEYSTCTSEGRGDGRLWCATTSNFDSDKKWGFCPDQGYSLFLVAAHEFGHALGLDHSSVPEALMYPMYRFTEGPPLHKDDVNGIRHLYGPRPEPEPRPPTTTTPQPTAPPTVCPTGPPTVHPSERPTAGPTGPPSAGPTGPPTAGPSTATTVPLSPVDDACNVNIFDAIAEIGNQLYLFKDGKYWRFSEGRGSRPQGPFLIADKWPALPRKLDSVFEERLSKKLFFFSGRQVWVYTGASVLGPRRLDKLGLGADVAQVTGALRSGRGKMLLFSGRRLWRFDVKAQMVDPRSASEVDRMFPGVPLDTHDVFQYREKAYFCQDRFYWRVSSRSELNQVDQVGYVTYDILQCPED
VALUE_KIND: pIC50
Convention used: pIC50 is expressed as -log10 of the molar concentration.

// fetch pIC50; item: COC(=O)Nc1ccc2oc3cc(S(=O)(=O)N[C@H](C(=O)O)C(C)C)ccc3c2c1 ; system: Matrix metalloproteinase-9 (Homo sapiens, UniProt P14780)
5.89

====

This listing pairs compounds with measured clearance.
Assay: Clearance in C57BL/6 mouse at 2 mg/kg, iv
Type: ADME, organism-based
Parameters: dose 2 mg/kg, route intravenous
Settings: in vivo
Express the result in mL/min/kg but write the number alone.

Below, 4 compounds whose answers are already recorded.
| CHEMICAL_STRING | clearance (mL/min/kg) |
| --- | --- |
| CC(C)[C@@H](NS(=O)(=O)c1ccc2oc3cc(NS(C)(=O)=O)ccc3c2c1)C(=O)O | 141 |
| CC(C)[C@H](NS(=O)(=O)c1ccc2c(c1)oc1ccc(NC(=O)NCCc3cccs3)cc12)C(=O)O | 211 |
| COC(=O)Nc1ccc2oc3cc(S(=O)(=O)N[C@H](C(=O)O)C(C)C)ccc3c2c1 | 17.2 |
| CCOC(=O)Nc1ccc2oc3cc(S(=O)(=O)N[C@H](C(=O)O)C(C)C)ccc3c2c1 | 19 |

Fill in clearance for record COC(=O)Nc1ccc2c(c1)oc1ccc(S(=O)(=O)N[C@@H](C(=O)O)C(C)C)cc12
8.3

====

Assay: Volume of distribution at steady state in C57BL/6 mouse at 2 mg/kg, iv
Format: ADME, organism-based
Set-up: dose 2 mg/kg, route intravenous
Conditions: in vivo, read-out: Vdss
VALUE_KIND: Vd (L/kg)
Quick note: give the figure in L/kg, leave out the unit.

The cases that follow already have their Vd on record.
| CHEMICAL_STRING | Vd [L/kg] |
| --- | --- |
| CC(C)[C@H](NS(=O)(=O)c1ccc2c(c1)oc1ccc(NC(=O)NCCc3cccs3)cc12)C(=O)O | 15.6 |
| COC(=O)Nc1ccc2c(c1)oc1ccc(S(=O)(=O)N[C@@H](C(=O)O)C(C)C)cc12 | 1.6 |
| CC(C)[C@@H](NS(=O)(=O)c1ccc2oc3cc(NS(C)(=O)=O)ccc3c2c1)C(=O)O | 1.9 |

// Input: CCOC(=O)Nc1ccc2oc3cc(S(=O)(=O)N[C@H](C(=O)O)C(C)C)ccc3c2c1 . Output its Vd only.
1.6

Please list Vd recorded for the compound COC(=O)Nc1ccc2oc3cc(S(=O)(=O)N[C@H](C(=O)O)C(C)C)ccc3c2c1
1.9
